Procedure Summary: Cell Viability - NIH 3T3 (AID 541);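 also: cells exposed to compound for 40 hours; plate controls were DMSO alone for no effect and tamoxifen positive control for full effect; nearly all actives have a fitted effect of over 25% in size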
Reported Conditions: NIH 3T3 cell viability, qHTS; at 92.2 µM (top of the series)
Inconclusive results are not listed. The source made the active and inactive calls. Calls follow the shape of the dose curve; as a rule, active = well fitted cell-killing curve with a large enough effect; inconclusive = small, poorly fitted or top-dose-only effect; inactive = flat fitted curve, though single readings scatter.
The categories you may choose from are yes (1) = active, no (0) = inactive

- Molecule: "CO"
  Category: "no (0)"
- Molecule: "OB(O)O"
  Category: "no (0)"
- Molecule: "O=c1n(CC2CO2)c(=O)n(CC2CO2)c(=O)n1CC1CO1 (stereo not given)"
  Category: "yes (1)"

Data request: For `[O-][N+](=Nc1ccccc1)c1ccccc1` , what call appears in the results of this test?
Data returned: no (0)

Data request: For `OCl` , what call appears in the results of this test?
Data returned: no (0)

Data request: For `CC/C=C\C/C=C\C/C=C\CCCCCCCC(=O)O` , what call appears in the results of this test?
Data returned: yes (1)

Data request: For `OCc1ccccc1` , what call appears in the results of this test?
Data returned: no (0)

Data request: For `c1ccc2ccccc2c1` , what call appears in the results of this test?
Data returned: no (0)

Data request: For `CCCCC` , what call appears in the results of this test?
Data returned: no (0)

Data request: For `OC[C@H]1O[C@@H]2O[C@H]3[C@H](O)[C@@H](O)[C@@H](O[C@H]4[C@H](O)[C@@H](O)[C@@H](O[C@H]5[C@H](O)[C@@H](O)[C@@H](O[C@H]6[C@H](O)[C@@H](O)[C@@H](O[C@H]7[C@H](O)[C@@H](O)[C@@H](O[C@H]1[C@H](O)[C@H]2O)O[C@@H]7CO)O[C@@H]6CO)O[C@@H]5CO)O[C@@H]4CO)O[C@@H]3CO` , what call appears in the results of this test?
Data returned: no (0)

Data request: For `NC(N)=O` , what call appears in the results of this test?
Data returned: no (0)

Data request: For `NCCN` , what call appears in the results of this test?
Data returned: no (0)
